Tested on: NCI/ADR-RES ovarian
Experiment: NCI-60 one-dose screen, 48 h
Settings: 10 µM unless noted
This is part of a sample that, as a whole, favours compounds with a hit. Of some 83,000 tested, about 20% had one in any assay. Calls of active or inactive are those of the source. The calls were made as follows: active = growth percent below 10; inactive = the rest.
API: response.call in label 1 (active), label 0 (inactive)

Field: example entries. Status: answers known.
1. CC(C)(C)c1ccc(S(=O)(=O)O)s1 | label 0
2. CCCc1cccc(CCC)c1O | label 0
3. C[C@]12CC[C@@H]3c4ccc(O)c([N+](=O)[O-])c4CC[C@H]3[C@@H]1CC[C@@H]2NS(=O)(=O)c1cccc(Br)c1 | label 0
4. O=C(c1nn(-c2ccc(Cl)cc2)cc1O)n1nc(C(F)(F)F)cc1-c1ccccc1 | label 0
5. CCC1=C(c2ccc(OC)cc2)C(C)(C)Oc2c1ccc(O)c2CN1CCCC1 | label 0

Data request: Could you check what this test reported for CSc1nc2c(c(=O)[nH]1)C(c1ccc(Cl)cc1)C1=C(N2)/C(=C/c2ccc(Cl)cc2)CNC1 (stereo not drawn) ?
Data returned: label 0

Data request: Then what about the compound COc1cc(C2C=C(c3ccc(C)cc3)Nc3nc(SC)[nH]c(=O)c32)ccc1Oc1ccnc2cc(Cl)ccc12 (stereo not drawn) ?
Data returned: label 0

Data request: Then what about the compound COc1ccc2c3c(c(OCCCN(C)C)nc2c1)-c1ccc(Cl)cc1C3=O ?
Data returned: label 1
